Assay: Concentration required for inhibition of human serine dependent Phospholipase A2
Here, each record is paired with measured log10 IC50 data.
Log10 applied to IC50; unit prior to transform: nM.

Smiles Entry | log10 IC50
CCCCCCCCN(C)C(=O)Cn1cc(Cc2cnc(=O)n(CC)c2)c(=O)nc1SCc1ccc(F)cc1 | 1.30

[ask] Please supply the value of reported log10 IC50 for the item CCCCCCCCN(C)C(=O)Cn1cc(Cc2cnc(=O)n(CC(=O)N3CCNC(=O)C3)c2)c(=O)nc1SCc1ccc(F)cc1
[reply] 0.30

[ask] Read the entry CCCCCCCCCCCCN(C)C(=O)Cn1cc(Cc2cnc(=O)n(CC(=O)OCC)c2)c(=O)nc1SCc1ccc(F)cc1 and write its reported log10 IC50.
[reply] 0.60

[ask] In one line, give reported log10 IC50 of the entry CCCCCCCCN(C)C(=O)Cn1cc(Cc2cnc(OC)nc2)c(=O)nc1SCc1ccc(F)cc1 .
[reply] 0.60

[ask] Note log10 IC50 for the compound shown: CCCCCCCCN(C)C(=O)Cn1cc(Cc2cnc(=O)n(CC(=O)N3CCN(C(C)=O)CC3)c2)c(=O)nc1SCc1ccc(F)cc1
[reply] 0.70

[ask] Supply recorded log10 IC50 for CCCCCCCCN(C)C(=O)Cn1cc(Cc2cnc(OCC)nc2)c(=O)nc1SCc1ccc(F)cc1 here.
[reply] 0.48

[ask] Please indicate log10 IC50 recorded for CCCCCCCCCCCCN(C)C(=O)Cn1cc(Cc2cnc(=O)n(CC(=O)N3CCOCC3)c2)c(=O)nc1SCc1ccc(F)cc1
[reply] -0.15

[ask] Give the reported log10 IC50 for this compound. CCCCCCCCCCCCN(C)C(=O)Cn1cc(Cc2cnc(=O)n(CC(=O)O)c2)c(=O)nc1SCc1ccc(F)cc1
[reply] 0.00

[ask] Determine its reported log10 IC50: CCCCCCCCN(C)C(=O)Cn1cc(Cc2cnc(=O)n(CC(=O)N3CCOCC3)c2)c(=O)nc1SCc1ccc(F)cc1
[reply] 1.00

---

Assay: Rapid clearance after intravenous administration in rat was determined
Type: ADME, organism-based
Conditions: blood, read-out: CLb
Readout: clearance (mL/min/kg)
Hi! Could you send only the number? It should be in mL/min/kg, unit omitted.

[ask] Please supply the value of reported clearance for the item CCCCCCCCCCCCN(C)C(=O)Cn1cc(Cc2cnc(=O)n(CC(=O)O)c2)c(=O)nc1SCc1ccc(F)cc1
[reply] 76

---

Assay: Concentration required for inhibition of human serine dependent Phospholipase A2
This section presents compounds with their documented log10 of IC50 values.
Response schema: value (number) is log10 of IC50 in units of nM.

Guide cases for log10 of IC50, answers given:
Smiles Entry | Measurement
CCCCCCCCNC(=O)Cn1cc(Cc2cncnc2)c(=O)nc1SCc1ccc(F)cc1 | 0.85
CCCCCCCCN(C)C(=O)Cn1cc(Cc2cnc(=O)n(C)c2)c(=O)nc1SCc1ccc(F)cc1 | 1.43
CCCCCCCCCCCCN(C)C(=O)Cn1cc(Cc2cnc(=O)n(CCO)c2)c(=O)nc1SCc1ccc(F)cc1 | 0.00

[ask] Provide measured log10 of IC50 value, entry: CCCCCCCCCCCCN(C)C(=O)Cn1cc(Cc2cnc(O)nc2)c(=O)nc1SCc1ccc(F)cc1
[reply] -0.05

---

Assay: Concentration required for inhibition of human serine dependent Phospholipase A2
Readout: IC50

[ask] # return recorded IC50 for input CCCCCCCCN(C)C(=O)Cn1cc(Cc2cnc(OCc3ccccc3)nc2)c(=O)nc1SCc1ccc(F)cc1
[reply] 7 nM

[ask] Annotate the molecule CCCCCCCCCCCCN(C)C(=O)Cn1cc(Cc2cnc(=O)n(CC(=O)N3CCNC(=O)C3)c2)c(=O)nc1SCc1ccc(F)cc1 with its measured IC50.
[reply] 0.4 nM

[ask] Let me know recorded IC50 for CCCCCCCCN(C)C(=O)Cn1cc(Cc2cnc(O)nc2)c(=O)nc1SCc1ccc(F)cc1 , thanks.
[reply] 4 nM

[ask] Dear colleague, please send me the reported IC50 for CCCCCCCCCCCCN(C)C(=O)Cn1cc(Cc2cnc(=O)n(CC(=O)NCCO)c2)c(=O)nc1SCc1ccc(F)cc1 when you can.
[reply] 0.6 nM
